- Test system: Lck-pY394 and pζ-chain phosphorylation in Jurkat TAg T cells
- ASSAY METHOD TEXT: Immunoblotting of Lyp's substrates Lck-pY394 and pζ-chain after TCR stimulation
- Format: cell-based
- STUDY CONDITIONS: 45 min at 37°C, then TCR stimulation, immunoblot
RESULT TYPE: concentration at which pTyr levels of Lck-pY394 and pζ-chain were augmented (μM)

COMPOUND SMILES	RESULT UNITS	NUMBER
Cc1ccc(-c2oc3cc(O)c(C(=O)O)cc3c2-c2cn(CCCC(=O)Nc3cccc4ccccc34)nn2)cc1	μM	10
COc1ccc2nc(NC(=O)CCCn3cc(-c4c(-c5cccc(C)c5)oc5cc(O)c(C(=O)O)cc45)nn3)sc2c1	μM	30
COC(=O)c1cc2c(-c3cn(CCCC(=O)Nc4ccc(Cl)c5ccccc45)nn3)c(-c3ccccc3)oc2cc1O	μM	5
COc1ccc(-c2oc3cc(O)c(C(=O)O)cc3c2-c2cn(CCCC(=O)Nc3cccc4ccccc34)nn2)cc1	μM	3
Cc1ccc(-c2oc3cc(O)c(C(=O)O)cc3c2-c2cn(CCCC(=O)Nc3ccc(Cl)c4ccccc34)nn2)cc1	μM	30

---

- System: TCR-induced activation of the proximal IL-2 promoter (NFAT/AP-1) in Jurkat TAg T cells
- ASSAY METHOD TEXT: NFAT/AP-1 dual luciferase reporter assay
- Format: cell-based
RESULT TYPE: compound concentration at which NFAT/AP-1 activation was augmented

COMPOUND SMILES	RESULT
COC(=O)c1cc2c(-c3cn(CCCC(=O)Nc4ccc(Cl)c5ccccc45)nn3)c(-c3ccccc3)oc2cc1O	submicromolar
COc1ccc(-c2oc3cc(O)c(C(=O)O)cc3c2-c2cn(CCCC(=O)Nc3cccc4ccccc34)nn2)cc1	submicromolar
COc1ccc2nc(NC(=O)CCCn3cc(-c4c(-c5cccc(C)c5)oc5cc(O)c(C(=O)O)cc45)nn3)sc2c1	≥ 3 µM
Cc1ccc(-c2oc3cc(O)c(C(=O)O)cc3c2-c2cn(CCCC(=O)Nc3cccc4ccccc34)nn2)cc1	submicromolar
Cc1ccc(-c2oc3cc(O)c(C(=O)O)cc3c2-c2cn(CCCC(=O)Nc3ccc(Cl)c4ccccc34)nn2)cc1	submicromolar
